Listed here: items and their measured inhibition.
- TARGET_ENTITY: Serine/threonine-protein kinase Chk1 (Homo sapiens);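 note: mean inhibition of CHEK1, part of the GSK PKIS profiling set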
- TEST_SETTINGS: at 1 µM
Write the numeric value and append its unit.

COMPOUND_SMILES	inhibition
Fc1cccc(COc2ccc(Nc3ncncc3C#Cc3ccccc3)cc2Cl)c1	5.99%
CC(C)c1ccc(-c2cc(-c3c[nH]nc3-c3ccccn3)ccn2)cc1	1.92%
COc1ccc2ncn(-c3cc(O[C@H](C)c4ccccc4C(F)(F)F)c(C(N)=O)s3)c2c1	0.47%

Measured inhibition, CC1(C)CC(n2cnc(-c3ccc(F)cc3)c2-c2ccnc(N)n2)CC(C)(C)N1 : -6.27%

Measured inhibition, NS(=O)(=O)c1ccc(N/N=C2\C(=O)Nc3cccc(CCc4ccncc4)c32)cc1 : 1.93%

* * *

- TARGET_ENTITY: Tyrosine-protein kinase Fgr (Homo sapiens);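 note: value reported as mean kinase inhibition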
- TEST_SETTINGS: at 1 µM
READOUT_TYPE: inhibition
Write the numeric value and append its unit.

Completed entries (count: 3):
COMPOUND	inhibition
OCCCNc1nccc(-c2c(-c3ccc(F)cc3)nn3cc(C(F)(F)F)ccc23)n1	8.24%
CS(=O)(=O)Nc1ccc(-c2ccc3c(NC(=O)C4CC4)n[nH]c3c2)cc1	7.28%
CC1(C)CC(n2cnc(-c3ccc(F)cc3)c2-c2ccnc(N)n2)CC(C)(C)N1	3.54%

Measured inhibition, COc1cc2c(cc1Nc1nc(Nc3cccc(F)c3C(N)=O)c3cc[nH]c3n1)N(C(=O)CN1CCN(C(C)C)CC1)CC2 : 0.3%

Measured inhibition, CCS(=O)(=O)c1ccc(OC)c(Nc2ncc(-c3cccc(C(C)=O)c3)o2)c1 : 44.4%

Measured inhibition, c1cnn2ncc(-c3ccnc(NCCCN4CCOCC4)n3)c2c1 : 0.54%

Measured inhibition, CNC(=O)c1sc(-n2cnc3cc(OC)c(OC)cc32)cc1OCc1ccccc1C(F)(F)F : 10.1%

Measured inhibition, O=C1Nc2ccccc2/C1=C1\CCc2cc(O)ccc21 : 15.4%

Measured inhibition, FC(F)(F)CNc1nccc(-c2cnn3ncccc23)n1 : 3.01%

Measured inhibition, CC1=C(C(=O)Nc2ccc3[nH]nc(C)c3c2)C(c2ccc(C(F)(F)F)cc2)CC(=O)N1 (stereo not given) : 3.75%

* * *

- TARGET_ENTITY: Fibroblast growth factor receptor 2 (Homo sapiens);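 note: reported figure is a mean percent inhibition of FGFR2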
- TEST_SETTINGS: at 1 µM
READOUT_TYPE: inhibition (%)
Report as a plain number; the unit % is understood.

Short answer on Fibroblast growth factor receptor 2 (Homo sapiens) for COc1cccc(-n2ncc3c(N/N=C/c4ccc(C(=O)NCCN(C)C)cc4)ncnc32)c1 , inhibition: 10.7

Short answer on Fibroblast growth factor receptor 2 (Homo sapiens) for NS(=O)(=O)c1cccc(N/C=C2\C(=O)Nc3ccccc32)c1 , inhibition: 26.9

Short answer on Fibroblast growth factor receptor 2 (Homo sapiens) for COc1cccc(Nc2nccc(-c3cnn4ncccc34)n2)c1 , inhibition: 16.6

Short answer on Fibroblast growth factor receptor 2 (Homo sapiens) for CCS(=O)(=O)c1ccc(OC)c(Nc2ncc(-c3cccc(C(C)=O)c3)o2)c1 , inhibition: 52.6

* * *

- TARGET_ENTITY: Misshapen-like kinase 1 (Homo sapiens) (UniProt Q8N4C8)
- Sequence (Q8N4C8 whole entry, looked up): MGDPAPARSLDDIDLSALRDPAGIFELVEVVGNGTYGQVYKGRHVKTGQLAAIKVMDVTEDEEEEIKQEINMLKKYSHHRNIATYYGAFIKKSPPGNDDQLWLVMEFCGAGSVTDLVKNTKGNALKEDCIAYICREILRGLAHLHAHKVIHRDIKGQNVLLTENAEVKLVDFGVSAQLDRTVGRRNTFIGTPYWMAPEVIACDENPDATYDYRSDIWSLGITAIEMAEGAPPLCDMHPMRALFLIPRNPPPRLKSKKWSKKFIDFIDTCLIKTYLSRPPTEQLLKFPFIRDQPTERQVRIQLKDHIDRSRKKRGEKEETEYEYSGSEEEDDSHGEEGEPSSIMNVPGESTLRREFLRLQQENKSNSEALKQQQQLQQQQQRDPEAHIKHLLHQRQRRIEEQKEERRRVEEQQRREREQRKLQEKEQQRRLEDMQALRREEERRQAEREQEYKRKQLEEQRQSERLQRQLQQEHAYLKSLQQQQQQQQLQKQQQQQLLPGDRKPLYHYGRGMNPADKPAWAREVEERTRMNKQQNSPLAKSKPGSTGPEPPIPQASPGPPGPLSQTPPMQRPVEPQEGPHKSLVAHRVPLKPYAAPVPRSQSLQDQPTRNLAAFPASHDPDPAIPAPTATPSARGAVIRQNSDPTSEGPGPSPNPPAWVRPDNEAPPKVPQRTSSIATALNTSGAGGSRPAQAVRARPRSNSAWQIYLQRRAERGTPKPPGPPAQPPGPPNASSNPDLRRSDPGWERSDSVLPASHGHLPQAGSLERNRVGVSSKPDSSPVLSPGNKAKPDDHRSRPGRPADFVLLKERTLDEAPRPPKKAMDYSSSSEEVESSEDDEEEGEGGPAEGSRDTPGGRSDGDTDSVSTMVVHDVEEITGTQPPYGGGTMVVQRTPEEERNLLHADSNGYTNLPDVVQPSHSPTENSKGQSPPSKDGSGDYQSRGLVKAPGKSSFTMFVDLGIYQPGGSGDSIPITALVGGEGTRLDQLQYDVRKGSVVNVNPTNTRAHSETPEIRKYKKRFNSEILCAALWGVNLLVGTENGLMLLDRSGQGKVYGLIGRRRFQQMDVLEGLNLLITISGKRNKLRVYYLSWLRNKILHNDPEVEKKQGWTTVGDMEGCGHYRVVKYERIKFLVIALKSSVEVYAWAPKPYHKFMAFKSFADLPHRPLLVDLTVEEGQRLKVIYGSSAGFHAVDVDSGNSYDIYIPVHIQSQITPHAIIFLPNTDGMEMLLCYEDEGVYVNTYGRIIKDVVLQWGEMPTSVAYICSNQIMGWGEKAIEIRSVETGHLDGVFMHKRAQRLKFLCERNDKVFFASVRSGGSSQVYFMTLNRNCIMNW
- TEST_SETTINGS: at 1 µM
- Description: GSK_PKIS: MINK mean inhibition at 1 uM [Nanosyn]
Listed here: items and their measured inhibition.
Report as a plain number; the unit % is understood.

Completed entries (count: 3):
MOLECULE	TARGET_ENTITY	TEST_VALUE
CCN1CCC(C(=O)Nc2n[nH]c3nnc(-c4cccc(F)c4F)cc23)CC1	Misshapen-like kinase 1 (Homo sapiens) (UniProt Q8N4C8)	5.72
CS(=O)(=O)CCNCc1ccc(-c2ccc3ncnc(Nc4ccc(OCc5cccc(C(F)(F)F)c5)cc4)c3c2)o1	Misshapen-like kinase 1 (Homo sapiens) (UniProt Q8N4C8)	3.68
CC1=C(C(=O)Nc2ccc3[nH]nc(C)c3c2)C(c2ccc(C(F)(F)F)cc2)CC(=O)N1 (stereo not given)	Misshapen-like kinase 1 (Homo sapiens) (UniProt Q8N4C8)	4.08

Measured inhibition, FC(F)(F)CNc1nccc(-c2cnn3ncccc23)n1 : 3.44

Measured inhibition, COc1ccc(-c2nn3ncccc3c2-c2ccnc(Nc3ccc(F)c(F)c3)n2)cc1 : 13.8

Measured inhibition, CCS(=O)(=O)c1ccc(OC)c(Nc2ncc(-c3cccc(C(C)=O)c3)o2)c1 : 8.97

Measured inhibition, Fc1cccc(COc2ccc(Nc3ncncc3C#Cc3ccccc3)cc2Cl)c1 : 15.9

Measured inhibition, O=C(Nc1n[nH]c2nnc(-c3cccnc3)cc12)C1CC1 : 13.1

Measured inhibition, CN(c1ccc(NC(=O)NCCN2CCOCC2)cc1)c1ccnc(Nc2ccc(CS(C)(=O)=O)cc2)n1 : 7.42

Measured inhibition, Cc1c2ccc(N(C)c3ccnc(Nc4cccc(S(N)(=O)=O)c4)n3)cc2nn1C : 55.3

Measured inhibition, COc1cc(N2CCN(C(C)C)CC2)ccc1Nc1nc(Nc2cccc(F)c2C(=O)O)c2cc[nH]c2n1 : 9.35

Measured inhibition, O=C(O[C@H]1CN[C@H](C#Cc2cc3ncnc(Nc4ccc(OCc5cccc(F)c5)c(Cl)c4)c3s2)C1)N1CCOCC1 : 9.94

* * *

Listed here: items and their measured inhibition.
- TARGET_ENTITY: Protein kinase C iota type (Homo sapiens);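 note: reported figures are mean inhibition values from the GSK PKIS screen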
- TEST_SETTINGS: at 1 µM
Report as a plain number; the unit % is understood.

COMPOUND_SMILES	inhibition (%)
CNC(=O)c1sc(-n2cnc3cc(OC)c(OC)cc32)cc1OCc1ccccc1C(F)(F)F	0.74
O=C(O[C@H]1CN[C@H](C#Cc2cc3ncnc(Nc4ccc5c(ccn5Cc5cc(F)ccc5F)c4)c3s2)C1)N1CCOCC1	3.06
NS(=O)(=O)c1ccc(N/N=C2\C(=O)Nc3cccc(CCc4ccncc4)c32)cc1	1.06

Would you kindly look at the next entry?
Measured inhibition, Cc1cc(O)cc(C)c1/C=C/c1cncc(C(N)=O)c1 : 1.6

* * *

- TARGET_ENTITY: Serine/threonine-protein kinase 3 (Homo sapiens) (UniProt Q13188);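 note: reported value is the mean percent inhibition of MST2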
- Sequence (Q13188 whole entry): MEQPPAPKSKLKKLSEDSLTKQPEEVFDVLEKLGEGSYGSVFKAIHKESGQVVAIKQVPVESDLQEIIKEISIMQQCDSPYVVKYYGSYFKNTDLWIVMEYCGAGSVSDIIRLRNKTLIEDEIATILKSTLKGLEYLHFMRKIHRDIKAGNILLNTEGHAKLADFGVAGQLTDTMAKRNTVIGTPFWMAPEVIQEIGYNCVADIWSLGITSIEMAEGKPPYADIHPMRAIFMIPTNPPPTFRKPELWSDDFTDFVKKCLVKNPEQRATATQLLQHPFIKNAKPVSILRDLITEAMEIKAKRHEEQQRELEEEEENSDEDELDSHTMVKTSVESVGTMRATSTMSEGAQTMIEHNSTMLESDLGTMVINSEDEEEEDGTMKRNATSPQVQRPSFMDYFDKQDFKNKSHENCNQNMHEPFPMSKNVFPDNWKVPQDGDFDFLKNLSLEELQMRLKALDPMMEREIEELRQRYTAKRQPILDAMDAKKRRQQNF
- TEST_SETTINGS: at 0.1 µM
Classification field: enter YES for inhibition values not below 4%, NO for values below it.

COMPOUND	CAT
FC(F)(F)CNc1nccc(-c2cnn3ncccc23)n1	YES
COc1c(C(N)=O)cc(-c2ccc(Cl)cc2)cc1-c1ccc(S(N)(=O)=O)cc1	YES
COc1cccc(-n2ncc3c(N/N=C/c4ccc(C(=O)NCCN(C)C)cc4)ncnc32)c1	YES
N#Cc1ccc2c(-c3ccnc(NC4CC4)n3)c(-c3ccc(F)cc3)nn2c1	NO
CC1=C(C(=O)Nc2ccc3[nH]nc(C)c3c2)C(c2ccc(C(F)(F)F)cc2)CC(=O)N1 (centres undefined)	YES
O=C(O[C@H]1CN[C@H](C#Cc2cc3ncnc(Nc4ccc5c(ccn5Cc5cc(F)ccc5F)c4)c3s2)C1)N1CCOCC1	NO
CS(=O)(=O)CCNCc1ccoc1-c1ccc2ncnc(Nc3ccc(OCc4ccccc4)cc3)c2c1	NO
COc1ccccc1-c1cc(/C=C2\C(=O)Nc3ncc(Br)cc32)cc(Br)c1O	YES

Answer whether inhibition of CCS(=O)(=O)c1ccc(OC)c(Nc2ncc(-c3cccc(C(C)=O)c3)o2)c1 is greater than or equal to 4%.
YES

* * *

- TARGET_ENTITY: Testis-specific serine/threonine-protein kinase 1 (Homo sapiens) (UniProt Q9BXA7);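 note: reported value is the mean inhibition, from the GSK PKIS kinase screening panel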
- Sequence (whole entry): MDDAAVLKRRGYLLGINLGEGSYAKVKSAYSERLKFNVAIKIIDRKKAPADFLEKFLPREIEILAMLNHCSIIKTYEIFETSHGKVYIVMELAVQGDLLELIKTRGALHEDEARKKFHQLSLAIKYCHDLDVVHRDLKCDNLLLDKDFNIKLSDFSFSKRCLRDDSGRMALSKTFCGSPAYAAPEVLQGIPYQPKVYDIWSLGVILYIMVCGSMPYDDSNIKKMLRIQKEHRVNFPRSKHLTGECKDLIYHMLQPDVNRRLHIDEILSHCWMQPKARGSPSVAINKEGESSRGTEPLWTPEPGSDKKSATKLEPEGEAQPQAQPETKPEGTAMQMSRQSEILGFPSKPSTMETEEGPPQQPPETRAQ
- TEST_SETTINGS: at 1 µM
READOUT_TYPE: inhibition (%)
Report as a plain number; the unit % is understood.

COMPOUND_SMILES	inhibition (%)
COc1c(C(N)=O)cc(-c2ccc(Cl)cc2)cc1-c1ccc(S(N)(=O)=O)cc1	5.11
CCn1c(-c2nonc2N)nc2cncc(C(=O)NCCNC)c21	32.1
COc1cccc(Nc2nccc(-c3cnn4ncccc34)n2)c1	12.8
CCS(=O)(=O)c1ccc(OC)c(Nc2ncc(-c3cccc(C(C)=O)c3)o2)c1	5.38
O=C(O[C@H]1CN[C@H](C#Cc2cc3ncnc(Nc4ccc5c(ccn5Cc5cc(F)ccc5F)c4)c3s2)C1)N1CCOCC1	4.15
O=C(O[C@H]1CN[C@H](C#Cc2cc3ncnc(Nc4ccc5c(cnn5Cc5ccccc5)c4)c3s2)C1)N1CCOCC1	-0.13
Fc1cccc(COc2ccc(Nc3ncncc3C#Cc3ccccc3)cc2Cl)c1	6.94

Would you kindly look at the next entry?
Short answer on Testis-specific serine/threonine-protein kinase 1 (Homo sapiens) (UniProt Q9BXA7) for CN(C)CCNC(=O)Nc1ccc(N(C)c2ccnc(Nc3ccc(CS(C)(=O)=O)cc3)n2)cc1 , inhibition: 5.73

Hey, just so you know, these numbers are from ChEMBL document CHEMBL1961873.
